Sourced from patent US10265307B2

biological target: Pim-2 (Homo sapiens (Human)); experiment: Pim-2 kinase assay; type: biochemical; details: 1 mM ATP; read-out: Pim2 IC50
Sequence (Q9P1W9 whole entry): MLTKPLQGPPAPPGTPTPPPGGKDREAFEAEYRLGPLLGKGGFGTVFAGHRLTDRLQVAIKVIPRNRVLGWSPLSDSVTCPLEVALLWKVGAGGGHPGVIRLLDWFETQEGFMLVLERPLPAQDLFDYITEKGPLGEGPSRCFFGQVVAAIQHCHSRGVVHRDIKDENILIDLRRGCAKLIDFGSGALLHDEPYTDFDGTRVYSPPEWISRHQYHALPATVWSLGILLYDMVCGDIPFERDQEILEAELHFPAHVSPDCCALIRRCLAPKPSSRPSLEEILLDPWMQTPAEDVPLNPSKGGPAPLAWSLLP

# molecule, measured target, IC50
data = [
    ("COCc1cc(F)c(-c2nc(C(=O)Nc3cnc4c(c3N3C[C@@H](N)[C@H](O)[C@@H](C)C3)CCC4O)ccc2F)c(F)c1 (single isomer, unassigned) [66 (Diastereoisomer 1)]", "Pim-2 (Homo sapiens (Human))", "≤ 100 nM"),
    ("C[C@H]1CN(c2c(NC(=O)c3nc(-c4c(F)cccc4F)sc3N)cnc3c2CCO3)C[C@@H](N)[C@@]1(C)O", "Pim-2 (Homo sapiens (Human))", "≤ 100 nM"),
    ("C[C@H]1CN(c2c(NC(=O)c3nc(-c4c(F)cccc4F)sc3N)cnc3c2CCO3)C[C@@H](N)[C@]1(C)O", "Pim-2 (Homo sapiens (Human))", "≤ 100 nM"),
    ("C[C@@H]1C[C@H](N)CN(c2c(NC(=O)c3nc(-c4c(F)cccc4F)sc3N)cnc3c2CCC3O)C1 (single isomer, unassigned) [47 (Diastereoisomer 2)]", "Pim-2 (Homo sapiens (Human))", "≤ 100 nM"),
]

---

target: UniProt:Q9P1W9; test: Pim-2 kinase assay; assay type: biochemical; settings: 1 mM ATP; read-out: Pim2 IC50
measured parameter: IC50

# molecule, experimental result
rows = [
    ("CC1(O)CCc2c1ncc(NC(=O)c1nc(-c3c(F)cccc3F)sc1N)c2N1CCC[C@H](N)C1 (single isomer, unassigned) [19 (Diastereoisomer 2)]", "100 to 1000 nM"),
    ("C[C@@H]1C[C@H](N)CN(c2c(NC(=O)c3ccc(F)c(-c4c(F)cc(OC5CCCOC5)cc4F)n3)cnc3c2CCC3O)C1 (single isomer, unassigned) [70 (Diastereoisomer 1)]", "≤ 100 nM"),
    ("C[C@@H]1C[C@H](N)CN(c2c(NC(=O)c3nc(-c4c(F)cccc4F)sc3N)cnc3c2CCC3O)C1 (single isomer, unassigned) [47 (Diastereoisomer 1)]", "≤ 100 nM"),
    ("COc1ccc(F)c(-c2nc(C(=O)Nc3cnc4c(c3N3CCC[C@H](N)C3)CCC4O)c(N)s2)c1F (single isomer, unassigned) [53 (Diastereoisomer 2)]", "≤ 100 nM"),
    ("C[C@H]1CN(c2c(NC(=O)c3ccc(F)c(-c4c(F)cc(C(C)(C)O)cc4F)n3)cnc3c2CCO3)C[C@@H](N)[C@@H]1O", "≤ 100 nM"),
    ("Nc1sc(-c2c(F)cccc2F)nc1C(=O)Nc1cnc2ccsc2c1N1CCC[C@H](N)C1", "≤ 100 nM"),
]

---

Reported IC50 is given for each of the following molecules.
molecular target: Pim-3 (Homo sapiens (Human))

# molecule, IC50
rows = [
    ("C[C@@H]1C[C@H](N)CN(c2c(NC(=O)c3ccc(F)c(-c4c(F)cc([S+](C)[O-])cc4F)n3)cnc3c2CCC3O)C1 (single isomer, unassigned) [60 (Diastereoisomer 1)]", "≤ 100 nM"),
    ("Nc1sc(-c2c(F)cccc2F)nc1C(=O)Nc1cnc2[nH]ncc2c1N1CCC[C@H](N)C1", "≤ 100 nM"),
    ("CC(C)(O)c1cc(F)c(-c2nc(C(=O)Nc3cnc4c(c3N3C[C@@H](N)C[C@@H](C(F)(F)F)C3)CCC4O)ccc2F)c(F)c1 (single isomer, unassigned) [72 (Diastereoisomer 2)]", "≤ 100 nM"),
    ("C[C@H]1CN(c2c(NC(=O)c3nc(-c4c(F)cccc4F)c(F)cc3N)cnc3c2CCC3O)C[C@@H](N)[C@@H]1O (single isomer, unassigned) [48 (Diastereoisomer 1)]", "≤ 100 nM"),
    ("C[C@H]1CN(c2c(NC(=O)c3ccc(F)c(-c4c(F)cccc4F)n3)cnc3c2CCC3O)C[C@@H](N)C1(C)O (single isomer, unassigned) [63 (Diastereoisomer 2)]", "≤ 100 nM"),
    ("C[C@H]1CN(c2c(NC(=O)c3ccc(F)c(-c4c(F)cc(OC5CCCOC5)cc4F)n3)cnc3c2CCO3)C[C@@H](N)[C@@H]1O (stereo partly drawn)", "≤ 100 nM"),
    ("CC1(O)CCc2c1ncc(NC(=O)c1nc(-c3c(F)cccc3F)sc1N)c2N1CCC[C@H](N)C1 (single isomer, unassigned) [19 (Diastereoisomer 1)]", "100 to 1000 nM"),
    ("CS(=O)(=O)c1cc(F)c(-c2nc(C(=O)Nc3cnc4c(c3N3CCC[C@H](N)C3)CCC4O)ccc2F)c(F)c1 (single isomer, unassigned) [61 (Diastereoisomer 2)]", "≤ 100 nM"),
    ("CC(C)(O)c1cc(F)c(-c2nc(C(=O)Nc3cnc4c(c3N3C[C@@H](N)C[C@@H](C(F)(F)F)C3)CCC4O)ccc2F)c(F)c1 (single isomer, unassigned) [72 (Diastereoisomer 1)]", "≤ 100 nM"),
    ("C[C@H]1CN(c2c(NC(=O)c3nc(-c4c(F)cccc4F)sc3N)cnc3c2CCO3)C[C@@H](N)[C@@]1(C)O", "≤ 100 nM"),
    ("C[C@@H]1C[C@H](N)CN(c2c(NC(=O)c3ccc(F)c(-c4c(F)cccc4F)n3)cnc3c2CCC3O)C1 (single isomer, unassigned) [45 (Diastereoisomer 2)]", "≤ 100 nM"),
    ("CC1(N)CCCN(c2c(NC(=O)c3nc(-c4c(F)cccc4F)sc3N)cnc3c2CCC3)C1 (stereo not drawn)", "≤ 100 nM"),
    ("C[S+]([O-])c1cc(F)c(-c2nc(C(=O)Nc3cnc4c(c3N3CCC[C@H](N)C3)CCC4O)ccc2F)c(F)c1 (single isomer, unassigned) [59 (Diastereoisomer 1)]", "≤ 100 nM"),
    ("Nc1sc(-c2c(F)cccc2F)nc1C(=O)Nc1cnc2c(c1N1C[C@@H](N)C[C@@H](C(F)(F)F)C1)CCC2O (single isomer, unassigned) [44 (Diastereoisomer 1)]", "≤ 100 nM"),
    ("C[S+]([O-])c1cc(F)c(-c2nc(C(=O)Nc3cnc4c(c3N3CCC[C@H](N)C3)CCC4O)ccc2F)c(F)c1 (single isomer, unassigned) [59 (Diastereoisomer 2)]", "≤ 100 nM"),
]
